- target.entity: T1, FLAG-tagged human FPR2 (Hs_FPR2) (human, UniProt P25090 1-351)
- T1 sequence (looked up): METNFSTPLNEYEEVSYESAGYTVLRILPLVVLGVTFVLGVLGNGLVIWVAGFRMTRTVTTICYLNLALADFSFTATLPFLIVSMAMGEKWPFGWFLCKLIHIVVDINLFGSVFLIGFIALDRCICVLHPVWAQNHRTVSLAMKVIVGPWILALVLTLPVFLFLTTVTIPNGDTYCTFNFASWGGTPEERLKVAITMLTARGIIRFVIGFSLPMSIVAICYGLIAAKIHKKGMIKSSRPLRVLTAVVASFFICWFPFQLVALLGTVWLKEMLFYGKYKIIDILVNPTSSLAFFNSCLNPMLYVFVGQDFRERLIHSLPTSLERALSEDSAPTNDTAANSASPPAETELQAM
- test.method.notes: cell-based or functional assay
Where no end group is shown, it is not given here. [ ]: non-standard residue; d: D form. The star is where a group is joined. Palmitoyl = CCCCCCCCCCCCCCCC(=O)*; For = O=C*
measured.quantity: ERK1/2 phosphorylation (Western blot): Emax (% of 1 μM WKYMVm) (%)
Your answer is read as %, so omit the unit and give the number.

Prompt: So what's the measured ERK1/2 phosphorylation (Western blot): Emax (% of 1 μM WKYMVm) for this one? WKYMVM (synthetic hexapeptide, all L residues; also called L-enantiomer of WKYMVm; source: bought: Tocris)
Response: 125

Prompt: So what's the measured ERK1/2 phosphorylation (Western blot): Emax (% of 1 μM WKYMVm) for this one? {Palmitoyl-Palmitoyl}-KIHKKGMIKS (Pal is printed twice; the text speaks of N-terminal palmitoylation as the last step of the synthesis; also called pepducin; source: synthetic peptide (Fmoc solid phase, purified by preparative RP-HPLC)) [F2Pal10 (Pal-Pal-KIHKKGMIKS)]
Response: 80.8

Prompt: So what's the measured ERK1/2 phosphorylation (Western blot): Emax (% of 1 μM WKYMVm) for this one? For-MTPMRKINPLMKLIN [MCT-2 (Formyl-MTPMRKINPLMKLIN from Cytochrome b)]
Response: 93.9

Prompt: So what's the measured ERK1/2 phosphorylation (Western blot): Emax (% of 1 μM WKYMVm) for this one? WKYMV[dM] (the last residue is the D form; the bought peptide is probably also an amide (surmise); source: bought: Tocris) [WKYMVm]
Response: 93.8

Reference source: paper PMC12881670
